Biological target: bovine cardiac myofibrils (full-length cardiac myosin ATPase in the native sarcomere) (Bos taurus (Bovine), UniProt Q9BE39)
Sequence (Q9BE39 whole entry): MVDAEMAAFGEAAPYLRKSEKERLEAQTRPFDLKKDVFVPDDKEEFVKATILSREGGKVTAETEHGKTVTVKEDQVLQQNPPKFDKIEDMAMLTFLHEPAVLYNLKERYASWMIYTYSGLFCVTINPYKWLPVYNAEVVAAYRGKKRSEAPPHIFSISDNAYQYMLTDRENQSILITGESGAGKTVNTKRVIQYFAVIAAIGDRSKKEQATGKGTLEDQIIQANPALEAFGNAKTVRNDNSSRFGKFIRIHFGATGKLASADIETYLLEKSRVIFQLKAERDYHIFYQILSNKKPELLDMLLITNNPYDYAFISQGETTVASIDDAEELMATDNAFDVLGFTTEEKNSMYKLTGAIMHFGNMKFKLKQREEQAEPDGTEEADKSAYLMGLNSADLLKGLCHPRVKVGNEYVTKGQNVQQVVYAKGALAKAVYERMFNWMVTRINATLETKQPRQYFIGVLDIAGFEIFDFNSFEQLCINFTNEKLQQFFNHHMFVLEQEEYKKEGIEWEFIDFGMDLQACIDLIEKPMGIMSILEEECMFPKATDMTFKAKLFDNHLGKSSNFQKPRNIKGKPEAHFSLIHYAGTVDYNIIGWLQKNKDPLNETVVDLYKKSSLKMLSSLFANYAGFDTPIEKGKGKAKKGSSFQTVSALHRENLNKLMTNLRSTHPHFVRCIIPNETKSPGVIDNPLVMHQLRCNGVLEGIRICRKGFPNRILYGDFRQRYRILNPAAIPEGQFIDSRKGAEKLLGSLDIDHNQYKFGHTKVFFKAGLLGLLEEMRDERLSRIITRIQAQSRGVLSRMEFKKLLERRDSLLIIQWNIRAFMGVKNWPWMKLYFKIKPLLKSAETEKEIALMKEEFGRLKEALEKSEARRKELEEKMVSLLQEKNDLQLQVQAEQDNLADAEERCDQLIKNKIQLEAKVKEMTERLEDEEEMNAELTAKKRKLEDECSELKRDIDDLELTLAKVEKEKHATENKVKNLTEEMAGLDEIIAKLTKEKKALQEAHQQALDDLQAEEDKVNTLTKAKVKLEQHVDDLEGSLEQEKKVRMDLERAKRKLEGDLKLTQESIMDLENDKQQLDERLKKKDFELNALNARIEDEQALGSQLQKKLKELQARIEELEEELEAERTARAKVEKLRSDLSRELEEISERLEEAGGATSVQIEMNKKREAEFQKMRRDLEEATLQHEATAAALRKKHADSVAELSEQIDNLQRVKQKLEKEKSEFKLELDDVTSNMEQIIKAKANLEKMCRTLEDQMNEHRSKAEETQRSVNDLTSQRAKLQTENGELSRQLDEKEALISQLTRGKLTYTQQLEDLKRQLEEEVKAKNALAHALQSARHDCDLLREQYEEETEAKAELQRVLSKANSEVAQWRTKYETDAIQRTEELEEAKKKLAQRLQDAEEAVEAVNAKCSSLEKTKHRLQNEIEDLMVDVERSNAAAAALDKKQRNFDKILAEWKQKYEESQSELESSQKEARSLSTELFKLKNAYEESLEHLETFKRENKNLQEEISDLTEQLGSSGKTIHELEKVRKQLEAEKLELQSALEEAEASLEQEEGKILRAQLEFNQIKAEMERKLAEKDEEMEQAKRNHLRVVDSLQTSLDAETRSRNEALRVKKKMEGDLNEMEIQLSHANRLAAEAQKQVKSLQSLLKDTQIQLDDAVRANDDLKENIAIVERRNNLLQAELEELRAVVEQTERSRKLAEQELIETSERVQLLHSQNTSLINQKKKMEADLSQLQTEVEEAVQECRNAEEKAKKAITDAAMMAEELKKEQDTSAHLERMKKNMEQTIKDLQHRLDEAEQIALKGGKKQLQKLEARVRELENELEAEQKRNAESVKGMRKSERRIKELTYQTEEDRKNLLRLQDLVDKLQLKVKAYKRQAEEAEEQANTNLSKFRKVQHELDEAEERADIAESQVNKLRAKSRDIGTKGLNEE
Sequence (P85100 whole entry partner): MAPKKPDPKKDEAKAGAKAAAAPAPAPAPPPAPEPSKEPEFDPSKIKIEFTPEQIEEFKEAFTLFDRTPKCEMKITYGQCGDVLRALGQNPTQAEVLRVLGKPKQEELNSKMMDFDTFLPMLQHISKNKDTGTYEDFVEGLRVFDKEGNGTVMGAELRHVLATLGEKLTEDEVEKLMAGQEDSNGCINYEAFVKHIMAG
Sequence (Q3SZE5 whole entry partner): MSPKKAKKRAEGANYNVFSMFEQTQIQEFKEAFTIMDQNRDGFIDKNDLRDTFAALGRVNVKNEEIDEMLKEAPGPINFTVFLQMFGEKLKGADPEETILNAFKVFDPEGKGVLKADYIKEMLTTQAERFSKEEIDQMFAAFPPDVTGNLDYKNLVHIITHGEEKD
Experiment: Skinned bovine cardiac myofibril ATPase assay (PK/LDH-coupled)
Format: biochemical
Settings: Ca2+ activating to 75% of maximal rate, concentration giving 15% inhibition
Protocol: To evaluate the effect of compounds on the ATPase activity of full-length cardiac myosin in the context of the native sarcomere, skinned myofibril assays were performed. […] Small molecule agents were assessed for their ability to inhibit the steady-state ATPase activity of bovine cardiac myofibrils using pyruvate kinase and lactate dehydrogenase (PK/LDH)-coupled enzyme system. This assay regenerates myosin-produced ADP into ATP by oxidizing NADH, producing an absorbance change at 340 nm. […]
test-readout: CDMF75 IC15 (µM)

Before answering, review these 3 worked examples.
Requested read-out: CDMF75 IC15. Entry: CCc1nc(-c2ccc3c(c2)CC[C@H]3NC(=O)c2cnn(C(C)C(=O)O)c2)no1 (some centres unmarked)
4.1

How about O=C(N[C@@H]1CCc2cc(-c3noc(C4CCC4)n3)ccc21)c1nnn(Cc2ccccc2)n1 ?
0.8

How about CC(C)(C)OC(=O)NC1CCc2cc(-c3noc(C(F)F)n3)ccc21 (centres unmarked) ?
8.9

[A] Cn1nccc1C(=O)N[C@@H]1CCc2cc(-c3ccccc3)ccc21
[B] CCc1nc(-c2ccc3c(c2)CC[C@H]3NC(=O)c2nnn(Cc3ccccc3)n2)no1
From the recorded data, which exceeds the other in CDMF75 IC15: A or B ? Write down the label of the entry you select.
A

[A] Cc1nc(-c2ccc3c(c2)CCC3NC(=O)c2cnc(C)n2C)no1 (centres unmarked)
[B] COC(=O)N[C@@H]1CCc2cc(-c3noc(C)n3)ccc21
[C] CCn1nccc1C(=O)NC1CCc2cc(-c3noc(C(F)F)n3)ccc21 (centres unmarked)
Ascending sort, CDMF75 IC15. Order the labels as requested and give them as your answer.
B, C, A
(B: 0.6 µM, C: 1.2 µM, A: 2.1 µM)
